- Tested on: MS2 coat protein
- assay-details: apparent Kd, MS2 coat protein; higher = weaker binding; RNA-MaP array
- experimental-parameters: designed as: OFF switch for theophylline; no ligand
value-type: apparent Kd (nM)
The reply should contain only the number, in nM.

Supply apparent Kd value. Item: "AGAACCCAAGAGGAUACCAGAACGACAAUCAAAUCUUUUUACAUGAGGAUCACCCAUGUUUUCCCUUGGCAGCCUCAUGCACGAC"
72.1

Annotate the sequence "UUACAACUAAUGGAUACCAGCCGCGUGCUAGUGGUAGCAUACAUGAGGAUCACCCAUGUCGGCCCUUGGCAGCCACGCCCAUGCU" with its measured apparent Kd.
14.5

Query apparent Kd for "CGCGGACCACCUGAUACCAGCGCAGUCAUGCAUGAACCCAACAUGAGGAUCACCCAUGUACGCCCUUGGCAGCAGGGAAAAGUCG"
161

Kindly indicate its recorded apparent Kd. Item: "AUGCACGGGCUAAUCUGCGAUUGGCACGAUACCAGAGAUCAAGACCUCCCUUGGCAGCGUGUCACAUGAGGAUCACCCAUGUGGA"
131
